- protocol_description: Quantitative High-Throughput drug screen in 47 multiple myeloma cell lines against the NCATS MIPE library collection: RPMI8226_ATCC cell viability assay (AID 1919871); further: nearly all actives have a fitted effect of over 30% in size
- measurement_conditions: RPMI8226 myeloma viability, CellTiter-Glo ATP luminescence, 48 h; series mostly up to 45.8 µM
Records with an inconclusive call do not appear. Activity calls are given as the source filed them. The call rests on the fitted dose curve; in most records, active means well fitted cell-killing curve with a large enough effect; inconclusive means small, poorly fitted or top-dose-only effect, or effect the other way; inactive means no such curve, though single readings can be large or run the other way.
Hi there, use one of these labels in your reply, thanks! active, inactive

CC(C)c1noc(N2CCC(COc3ccc(-c4ccc(S(C)(=O)=O)cc4)nc3)CC2)n1 active
CC1=C(CO)C(=O)O[C@@H]([C@@H](C)[C@H]2CC[C@H]3[C@@H]4C[C@H]5O[C@]56[C@@H](O)C=CC(=O)[C@]6(C)[C@@H]4CC[C@]23C)C1 active
CNC(=O)c1ccc(-c2cnc3ncc(Cc4ccc5ncccc5c4)n3n2)cc1F inactive
O=C(Nc1cn[nH]c1-c1nc2ccc(CN3CCOCC3)cc2[nH]1)NC1CC1 active

Would you kindly look at the next entry?
Task: Kindly provide the recorded test outcome for the following molecule: "Nc1ccccc1NC(=O)c1ccc(CNc2nccc(-c3cccnc3)n2)cc1"
Result: active

====

- Test system: TAB109
- protocol_description: qHTS profiling for inhibitors of Plasmodium falciparum proliferation (AID 504749); further: nearly all actives have a fitted effect of over 60% in size
- measurement_conditions: P. falciparum in erythrocytes, SYBR Green DNA, 72 h; series mostly up to 28.7 µM
Records with an inconclusive call do not appear. The source made the active and inactive calls. Calls come from the whole dose curve; as a rule, active = well fitted inhibition curve with a large enough effect; inconclusive = small, poorly fitted or top-dose-only effect; inactive = flat fitted curve, though single readings scatter.
Result category, one only: yes (active), no (inactive)

Completed entries (count: 5):
compound	test_system	cat
COC(=O)C1=C(C)NC(C)=C(C(=O)OCCN2CCN(C(c3ccccc3)c3ccccc3)CC2)C1c1cccc([N+](=O)[O-])c1 (stereo not given)	TAB109	yes
COc1cc(C(=O)NS(=O)(=O)c2ccccc2C)ccc1Cc1cn(C)c2ccc(NC(=O)OC3CCCC3)cc12	TAB109	no
Nc1ccc(S(=O)(=O)Nc2ncccn2)cc1	TAB109	no
CC1(C)O[C@@H]2C[C@@H]3[C@H]4C[C@@H](F)C5=CC(=O)C=C[C@]5(C)[C@@]4(F)[C@@H](O)C[C@]3(C)[C@]2(C(=O)CO)O1	TAB109	no
CCC1=C[C@@H]2CN(C1)Cc1c([nH]c3ccccc13)[C@@](C(=O)OC)(c1cc3c(cc1OC)N(C)[C@@H]1[C@@](O)(C(=O)OC)[C@H](OC(C)=O)[C@]4(CC)C=CCN5CC[C@]31[C@@H]54)C2	TAB109	yes

Here is the next item to consider.
Task: Can you look up the reported call for "C[C@H]1C[C@@H]2[C@@H]([C@@H](O)C[C@@]3(C)[C@H]2CC[C@]3(O)C(=O)CO)[C@@]2(C)C=CC(=O)C=C12" for me?
Result: no

====

- test_system: Cytochrome P450 2C9 (Homo sapiens)
- protocol_description: Cytochrome P450 family 2 subfamily C member 9 (CYP2C9) small molecule antagonists: luciferase biochemical (cell-free) qHTS assay (AID 1645842); further: nearly all actives have a fitted effect of over 55% in size
- measurement_conditions: P450-Glo CYP2C9 enzyme assay, luciferin luminescence; series mostly up to 57.4 µM
Results filed as inconclusive are left out. Calls of active or inactive are those of the source. Calls come from the whole dose curve; as a rule, active = well fitted inhibition curve with a large enough effect in the repeat runs; inconclusive = weak or mixed curves; inactive = no such curve, though single readings can be large or run the other way.
A correct response names exactly one class from active, inactive

compound	cat
COc1ccc2c(c1)CC[C@@H](CN(C)CC(=O)O)[C@H]2c1ccccc1	inactive
COc1cc2nccc(Oc3ccc(NC(=O)C4(C(=O)Nc5ccc(F)cc5)CC4)cc3)c2cc1OC	active
CN1CCN(Cc2ccc(NC(=O)Nc3ccc(Oc4cc(NC(=O)C5CC5)ncn4)cc3)cc2C(F)(F)F)CC1	active
Cn1c2cc(S(C)=O)sc2c2cnn(Cc3cccc(N)c3)c(=O)c21 (stereo not drawn)	active

Task: I'd appreciate the recorded outcome for "Cn1cncc1[C@@](N)(c1ccc(Cl)cc1)c1ccc2c(c1)c(-c1cccc(Cl)c1)cc(=O)n2C" from this test.
Result: active

Task: Outcome logged for "Clc1cccc(-n2nnnc2NCc2ccccc2Oc2ccccn2)c1Cl" in this assay:
Result: active

Task: Test call for this compound, please: "Cc1cnc(Nc2ccc(F)cc2Cl)nc1-c1c[nH]c(C(=O)N[C@H](CO)c2cccc(Cl)c2)c1"
Result: active

Task: What did this assay record as the result for "Cn1cc(-c2[nH]c3cc(NC(=O)[C@H](N)C4CCCCC4)cc4c3c2C=NNC4=O)cn1" ?
Result: active

Task: Could you check what this test reported for CCOc1ccccc1OCCNC(C)Cc1ccc(OC)c(S(N)(=O)=O)c1 (stereo not drawn) ?
Result: inactive

====

- protocol_description: qHTS drug screen for cell cycle checkpoint inhibitors in PARPi-resistant BRCA-mutant ovarian cancer cell lines. (AID 1963452)
- measurement_conditions: PEO1/OlaR viability, CellTiter-Glo luminescence, 96 h; stronger effect = lower value
property_label: Z-AUC
Reply with just the number.

# annotated cases, reported Z-AUC shown
C[C@@]12O[C@@H](C[C@]1(O)CO)n1c3ccccc3c3c4c(c5c6ccccc6n2c5c31)CNC4=O -1.24
CC(=O)SC[C@@H](C)C(=O)N1CCC[C@H]1C(=O)N[C@@H](Cc1ccccc1)C(=O)O 0.0192
COc1cc(C(=O)N2CCC(N3CCN(C)CC3)CC2)ccc1Nc1ncc2c(n1)N(C)c1ccccc1C(=O)N2C -0.667
O=C(O)Cn1nnc(-c2cc(N3CCC(Oc4cc(F)ccc4Br)CC3)no2)n1 -0.81

Turning now to a further compound:
For reference, reported Z-AUC for "Nc1ccn([C@@H]2CS[C@H](CO)O2)c(=O)n1" stands at -0.72

====

- protocol_description: High-throughput drug toxicity screening in the BPDCN cell line Gen2.2 (AID 1224824);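 further: cells exposed to compounds for 48 h before reading; 100% = DMSO and 0% = bortezomib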
- measurement_conditions: Gen2.2 BPDCN cells; at 45.8 µM (top of the series) unless noted
Categorize each record by its cell viability, % of control (lower = more cytotoxic) using low interval: < 8%; middle interval: ≥ 8% and < 90%; high interval: ≥ 90%

Study these solved cases before continuing.
compound	cat
COC(=O)C1=C(C)NC(C)=C(C(=O)OCCN2CCN(C(c3ccccc3)c3ccccc3)CC2)C1c1cccc([N+](=O)[O-])c1 (stereo not given)	high interval
CN(C)CCCN=c1c2ccccc2n(C)c2[nH]c(=O)n(C)c(=O)c12	low interval
CC(=O)OCC(=O)[C@@]1(O)[C@H](C)C[C@H]2[C@@H]3C=C(C)C4=Cc5c(cnn5-c5ccccc5)C[C@]4(C)[C@@H]3[C@@H](O)C[C@@]21C	high interval

Task: Class (by measured cell viability, % of control (lower = more cytotoxic)) for "C[C@@H]1COC(Nc2ccc3ncnc(Nc4ccc(OCc5nccs5)c(Cl)c4)c3c2)=N1"
Result: high interval

Task: Looking at "COc1cc(Nc2ncc(F)c(Nc3ccc4c(n3)N(COP(=O)(O)O)C(=O)C(C)(C)O4)n2)cc(OC)c1OC" , which class would you pick?
Result: middle interval

Task: The entry to classify is "Cc1cn(-c2cc(NC(=O)c3ccc(C)c(Nc4nccc(-c5cccnc5)n4)c3)cc(C(F)(F)F)c2)cn1" ; which class holds it?
Result: high interval

Task: Place this compound in its band: "COc1cc2c(cc1-c1c(C)noc1C)ncc1[nH]c(=O)n([C@H](C)c3ccccn3)c12"
Result: middle interval

Task: Hey, which category is "CC(C)CC(=O)Nc1n[nH]c2c1CN(C(=O)C1CCN(C)CC1)C2(C)C" in, do you know?
Result: low interval

Task: Consider "Nc1nccc(Oc2ccc(NC(=O)c3c[nH]cc(-c4ccc(F)cc4)c3=O)cc2F)c1Cl" . To which cell viability, % of control (lower = more cytotoxic) class does it belong?
Result: low interval

Task: State the class of the compound shown: "COc1cccc2nc(-c3cccs3)nc(NN3C(=O)C=C(C)C3=O)c12"
Result: low interval

Task: Class (by measured cell viability, % of control (lower = more cytotoxic)) for "CC[C@H](CO)Nc1nc(NCc2ccccc2)c2ncn(C(C)C)c2n1"
Result: middle interval

Task: Assign a bin to "CN(C)Cc1c(C(=O)NCCOc2ccc(C(=O)NO)cc2)oc2ccccc12"
Result: middle interval

Task: Class (by measured cell viability, % of control (lower = more cytotoxic)) for "Clc1ccc2ncc(-c3cccc(NC4CNC4)n3)n2c1"
Result: middle interval

Task: Exam item: assign "COc1ccc(F)c(F)c1C(=O)c1cnc(NC2CCN(S(C)(=O)=O)CC2)nc1N" to the correct category.
Result: low interval

Task: Looking at "CC(C)Nc1cc(C(F)(F)F)cc2nc(NC(=O)c3cccnc3)nn12" , which class would you pick?
Result: middle interval

Task: Bin this entry: "CN1CCN(c2cc(C(=O)Nc3ccc4c(c3)-c3c(c(C(N)=O)nn3-c3ccc(F)cc3)CC4)c(Cl)cn2)CC1"
Result: low interval

Task: Band assignment needed for "Clc1cccc(-n2nnnc2NCc2ccccc2Oc2ccccn2)c1Cl" please.
Result: high interval

====

- protocol_description: Quantitative High-Throughput drug screen in 47 multiple myeloma cell lines against the NCATS MIPE library collection: Delta47_JCRB cell viability assay (AID 1918925; further: potency means the concentration at half of the fitted maximal effect; nearly all actives have a fitted effect of over 45% in size)
- measurement_conditions: Delta47 myeloma viability, CellTiter-Glo ATP, 48 h; series mostly up to 45.8 µM
Inconclusive results are not listed. Activity calls are given as the source filed them. The call rests on the fitted dose curve; in most records, active means well fitted cell-killing curve with a large enough effect; inconclusive means small, poorly fitted or top-dose-only effect, or effect the other way; inactive means no such curve, though single readings can be large or run the other way.
Collected Potency values appear next to each entry.

// below: answered compounds
compound	Potency
CC(C)[C@H](C(=O)Nc1ccc(C(=O)NO)cc1)c1ccccc1	372 nM (active)
O=c1[nH]nc(Sc2ncc([N+](=O)[O-])s2)n1-c1ccc2c(c1)OCCO2	2350 nM (active)
CN1CCC(CNc2ccc3ncc(-c4cccc(OC(F)(F)F)c4)n3n2)CC1	4690 nM (active)
CC1(C)CCC(c2ccc(Cl)cc2)=C(CN2CCN(c3ccc(C(=O)NS(=O)(=O)c4ccc(N[C@H](CCN5CCOCC5)CSc5ccccc5)c(S(=O)(=O)C(F)(F)F)c4)cc3)CC2)C1	7430 nM (active)
COc1ccc(-c2cc3c(C)nc(N)nc3n(C3CCC(OCCO)CC3)c2=O)cn1 (centres undefined)	11.8 nM (active)

Value of Potency reported for the compound "CNC(=O)c1nn(C)c2c1C(C)(C)Cc1cnc(Nc3ccc(N4CCN(C)CC4)cc3)nc1-2" is 1050 nM (active)

Cited source: PubChem BioAssay (NCATS)
